systemTested: Galectin-3 (Homo sapiens, UniProt P17931)
Sequence (P17931 whole entry): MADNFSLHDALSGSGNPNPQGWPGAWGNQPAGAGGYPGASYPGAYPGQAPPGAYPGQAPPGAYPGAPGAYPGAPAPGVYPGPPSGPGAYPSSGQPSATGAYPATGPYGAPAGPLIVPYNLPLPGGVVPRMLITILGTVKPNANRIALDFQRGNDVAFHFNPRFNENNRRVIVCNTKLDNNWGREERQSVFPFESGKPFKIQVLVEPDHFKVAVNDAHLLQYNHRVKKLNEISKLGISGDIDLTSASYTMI
protocolDescription: Fluorescence anisotropy assay, inhibition of galectin / fluorescein tagged saccharide probe interaction
pKd: −log10 of the molar value.
reportedProperty: pKd

Please review the following examples before continuing.
{"compound": "O=C(O)CO[C@@H]1[C@@H](n2cc(-c3cc(F)c(Cl)c(F)c3)nn2)[C@@H](O)[C@@H](CO)O[C@@H]1Sc1ccc(Cl)c(Cl)c1", "pKd": 8.07}
{"compound": "OC[C@H]1O[C@H](Sc2cncc(Br)c2)[C@H](OCc2cncs2)[C@@H](n2cc(-c3cc(F)c(F)c(F)c3)nn2)[C@H]1O", "pKd": 7.68}
{"compound": "OC[C@H]1O[C@H](Sc2cncc(Br)c2)[C@H](OCc2cscn2)[C@@H](n2cc(-c3cc(F)c(F)c(F)c3)nn2)[C@H]1O", "pKd": 7.74}
{"compound": "CC(OC1C(n2cc(-c3cc(F)c(F)c(F)c3)nn2)[C@@H](O)C(CO)O[C@@H]1Sc1cncc(Br)c1)C(=O)O (single isomer, unassigned; diastereomer 2) [Example 28]", "pKd": 8.22}
{"compound": "O=P(O)(O)OCO[C@@H]1[C@@H](n2cc(-c3cc(F)c(F)c(F)c3)nn2)[C@@H](O)[C@@H](CO)O[C@@H]1Sc1cncc(Br)c1", "pKd": 7.92}
{"compound": "OC[C@H]1O[C@H](Sc2cncc(Br)c2)[C@H](OCc2nnn[nH]2)[C@@H](n2cc(-c3cc(F)c(F)c(F)c3)nn2)[C@H]1O", "pKd": 7.80}
{"compound": "OC[C@H]1O[C@H](Sc2cncc(Br)c2)[C@H](OCc2ncco2)[C@@H](n2cc(-c3cc(F)c(F)c(F)c3)nn2)[C@H]1O", "pKd": 7.62}
{"compound": "CS(=O)(=O)NC(=O)COC1C(n2cc(-c3cc(F)c(Cl)c(F)c3)nn2)[C@@H](O)C(CO)O[C@@H]1Sc1ccc(Cl)c(Cl)c1 (stereo in doubt)", "pKd": 7.64}

I: O=C(O)CCCO[C@@H]1[C@@H](n2cc(-c3cc(F)c(F)c(F)c3)nn2)[C@@H](O)[C@@H](CO)O[C@@H]1Sc1cncc(Br)c1
II: OC[C@H]1O[C@H](Sc2cncc(Br)c2)[C@H](OCc2nccs2)[C@@H](n2cc(-c3cc(F)c(F)c(F)c3)nn2)[C@H]1O
III: OC[C@H]1O[C@H](Sc2cncc(Br)c2)[C@H](OCc2cc(F)c(O)c(F)c2)[C@@H](n2cc(-c3cc(F)c(F)c(F)c3)nn2)[C@H]1O
Asked: // smallest pKd at index 0, largest at the end Your answer should be the labels, listed in the requested order.
Given back: II, III, I
(II: 7.39, III: 7.77, I: 8.00)

###

systemTested: Galectin-1 (Homo sapiens)
Sequence (P09382 whole entry): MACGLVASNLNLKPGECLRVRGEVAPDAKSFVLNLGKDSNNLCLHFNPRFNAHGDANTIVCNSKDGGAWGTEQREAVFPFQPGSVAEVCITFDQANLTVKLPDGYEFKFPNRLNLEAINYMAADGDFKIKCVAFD
protocolDescription: Fluorescence anisotropy assay, inhibition of galectin / fluorescein tagged saccharide probe interaction
reportedProperty: Kd (nM)

Please review the following examples before continuing.
{"compound": "O=C(O)CO[C@@H]1[C@@H](n2cc(-c3cc(F)c(F)c(F)c3)nn2)[C@@H](O)[C@@H](CO)O[C@@H]1Sc1cncc(Br)c1", "resultUnits": "nM", "Kd": 1800}
{"compound": "OCC1O[C@H](Sc2ccc(Cl)c(Cl)c2)C(OCc2nnn[nH]2)C(n2cc(-c3cc(F)c(Cl)c(F)c3)nn2)[C@H]1O (stereo in doubt)", "resultUnits": "nM", "Kd": 1400}
{"compound": "OC[C@H]1O[C@H](Sc2cncc(Br)c2)[C@H](OCc2cncs2)[C@@H](n2cc(-c3cc(F)c(F)c(F)c3)nn2)[C@H]1O", "resultUnits": "nM", "Kd": 1900}
{"compound": "OC[C@H]1O[C@H](Sc2cncc(Br)c2)[C@H](OCc2ncco2)[C@@H](n2cc(-c3cc(F)c(F)c(F)c3)nn2)[C@H]1O", "resultUnits": "nM", "Kd": 2800}
{"compound": "OC[C@H]1O[C@H](Sc2cncc(Br)c2)[C@H](OCc2nccs2)[C@@H](n2cc(-c3cc(F)c(F)c(F)c3)nn2)[C@H]1O", "resultUnits": "nM", "Kd": 2600}

I: O=S(=O)(O)O[C@@H]1[C@@H](n2cc(-c3cc(F)c(F)c(F)c3)nn2)[C@@H](O)[C@@H](CO)O[C@@H]1Sc1cncc(Br)c1
II: OC[C@H]1O[C@H](Sc2cncc(Br)c2)[C@H](OCc2cscn2)[C@@H](n2cc(-c3cc(F)c(F)c(F)c3)nn2)[C@H]1O
III: OCC1O[C@H](Sc2ccc(Cl)c(Cl)c2)C(OCc2cocn2)C(n2cc(-c3cc(F)c(Cl)c(F)c3)nn2)[C@H]1O (stereo partly shown)
IV: OC[C@H]1O[C@H](Sc2cncc(Br)c2)[C@H](OCc2cnco2)[C@@H](n2cc(-c3cc(F)c(F)c(F)c3)nn2)[C@H]1O
V: OC[C@H]1O[C@H](Sc2cncc(Br)c2)[C@H](OCc2cc(F)c(O)c(F)c2)[C@@H](n2cc(-c3cc(F)c(F)c(F)c3)nn2)[C@H]1O
Asked: // smallest Kd at index 0, largest at the end Your answer should be the labels, listed in the requested order.
Given back: V, I, II, IV, III

P: CC(OC1C(n2cc(-c3cc(F)c(F)c(F)c3)nn2)[C@@H](O)C(CO)O[C@@H]1Sc1cncc(Br)c1)C(=O)O (single isomer, unassigned; diastereomer 1) [Example 27]
Q: OC[C@H]1O[C@H](Sc2cncc(Br)c2)[C@H](OCc2ccon2)[C@@H](n2cc(-c3cc(F)c(F)c(F)c3)nn2)[C@H]1O
Asked: # returns the entry with the larger Kd; inputs P and Q // caller expects the label of the chosen entry
Given back: P
(P: 6500 nM, Q: 2900 nM)
